Measurement Notes: Selectivity index, ratio of IC50 for african green monkey (Cercopithecus aethiops) Vero cells to IC50 for chloroquine-sensitive Plasmodium falciparum 3D7
Format: toxicity, cell-based
Conditions: read-out: Ratio IC50
Result Type: selectivity ratio
Reply briefly: the number, and no unit.

| Compound | Result Type | Experimental Result |
| --- | --- | --- |
| Cc1ccccc1Nc1nc(N2CCOCC2)nc(N2CCN(CCNc3ccnc4cc(Cl)ccc34)CC2)n1 | selectivity ratio | 377 |
| Cc1ccc(Nc2nc(Nc3ccc(C)cc3)nc(N3CCN(CCNc4ccnc5cc(Cl)ccc45)CC3)n2)cc1 | selectivity ratio | 155 |

Would you mind telling me what selectivity ratio value was observed for "Fc1ccc(Nc2nc(NC3CCCCC3)nc(N3CCN(CCNc4ccnc5cc(Cl)ccc45)CC3)n2)cc1" ?
262

"Clc1ccc2c(NCCN3CCN(c4nc(Nc5ccccc5)nc(N5CCCCC5)n4)CC3)ccnc2c1" , same question.
117

"Cc1ccc(Nc2nc(NC3CCCCC3)nc(N3CCN(CCNc4ccnc5cc(Cl)ccc45)CC3)n2)cc1" , same question.
115

"Fc1ccccc1Nc1nc(N2CCCCC2)nc(N2CCN(CCNc3ccnc4cc(Cl)ccc34)CC2)n1" , same question.
14.9
